Test system: K562 (human acute myeloid leukemia)
experiment: cytotoxic MTS test, K562
Type: cell-based
measurement-conditions: K562 cells
From the text: To evaluate the antitumor activity of newly prepared compounds for in vitro conditions, we used cytotoxic MTS test (Nosková V. et al., Neoplasma 2002, 49, 418-425) on cell lines derived from normal tissues or tumors. […]
pIC50: −log10 of the molar value.

{"columns": ["compound", "test-system", "pIC50"],
 "data": [
  ["OC[C@H]1O[C@@H](n2c3cnccc3c3c(-c4ccco4)ncnc32)[C@H](O)[C@@H]1O [Compound 2f]", "K562 (human acute myeloid leukemia)", "< 4.30"],
  ["OC[C@H]1O[C@@H](n2c3cnccc3c3c(-c4cc5ccccc5o4)ncnc32)[C@H](O)[C@@H]1O [Compound 2i]", "K562 (human acute myeloid leukemia)", "4.60 to 5.00"],
  ["Nc1ncnc2c1c1ccncc1n2[C@@H]1O[C@H](CO)[C@@H](O)[C@H]1O [Compound 2c]", "K562 (human acute myeloid leukemia)", "6.05 to 6.70"],
  ["OC[C@H]1O[C@@H](n2c3cccnc3c3c(-c4cc5ccccc5o4)ncnc32)[C@H](O)[C@@H]1O [Compound 1i]", "K562 (human acute myeloid leukemia)", "< 4.30"],
  ["COc1ncnc2c1c1ccncc1n2[C@@H]1O[C@H](CO)[C@@H](O)[C@H]1O [Compound 2a]", "K562 (human acute myeloid leukemia)", "5.00 to 6.05"],
  ["Cc1ncnc2c1c1ccncc1n2[C@@H]1O[C@H](CO)[C@@H](O)[C@H]1O [Compound 2d]", "K562 (human acute myeloid leukemia)", "5.00 to 6.05"],
  ["Cc1ncnc2c1c1ncccc1n2[C@@H]1O[C@H](CO)[C@@H](O)[C@H]1O [Compound 1d]", "K562 (human acute myeloid leukemia)", "4.60 to 5.00"],
  ["CN(C)c1ncnc2c1c1ccncc1n2[C@@H]1O[C@H](CO)[C@@H](O)[C@H]1O [Compound 2e]", "K562 (human acute myeloid leukemia)", "< 4.30"],
  ["COc1ncnc2c1c1ncccc1n2[C@@H]1O[C@H](CO)[C@@H](O)[C@H]1O [Compound 1a]", "K562 (human acute myeloid leukemia)", "< 4.30"],
  ["Nc1ncnc2c1c1ncccc1n2[C@@H]1O[C@H](CO)[C@@H](O)[C@H]1O [Compound 1c]", "K562 (human acute myeloid leukemia)", "4.30 to 4.60"],
  ["OC[C@H]1O[C@@H](n2c3cnccc3c3c(-c4ccoc4)ncnc32)[C@H](O)[C@@H]1O [Compound 2g]", "K562 (human acute myeloid leukemia)", "< 4.30"],
  ["OC[C@H]1O[C@@H](n2c3cnccc3c3c(-c4ccsc4)ncnc32)[C@H](O)[C@@H]1O [Compound 2h]", "K562 (human acute myeloid leukemia)", "< 4.30"],
  ["OC[C@H]1O[C@@H](n2c3cccnc3c3c(-c4ccco4)ncnc32)[C@H](O)[C@@H]1O [Compound 1f]", "K562 (human acute myeloid leukemia)", "< 4.30"],
  ["OC[C@H]1O[C@@H](n2c3cccnc3c3c(-c4ccsc4)ncnc32)[C@H](O)[C@@H]1O [Compound 1h]", "K562 (human acute myeloid leukemia)", "< 4.30"]
]}

====

Tested on: HCT116p53−/− (human colorectal cancer, mutant p53)
experiment: cytotoxic MTS test, HCT116p53
Assay type: cell-based
measurement-conditions: HCT116p53 cells
pIC50: −log10 of the molar value.

{"columns": ["smiles-text", "test-system", "pIC50"],
 "data": [
  ["COc1ncnc2c1c1ncccc1n2[C@@H]1O[C@H](CO)[C@@H](O)[C@H]1O", "HCT116p53−/− (human colorectal cancer, mutant p53)", "< 4.30"],
  ["CN(C)c1ncnc2c1c1ccncc1n2[C@@H]1O[C@H](CO)[C@@H](O)[C@H]1O", "HCT116p53−/− (human colorectal cancer, mutant p53)", "< 4.30"],
  ["OC[C@H]1O[C@@H](n2c3cccnc3c3c(-c4ccoc4)ncnc32)[C@H](O)[C@@H]1O", "HCT116p53−/− (human colorectal cancer, mutant p53)", "< 4.30"],
  ["Cc1ncnc2c1c1ncccc1n2[C@@H]1O[C@H](CO)[C@@H](O)[C@H]1O", "HCT116p53−/− (human colorectal cancer, mutant p53)", "< 4.30"],
  ["CN(C)c1ncnc2c1c1ncccc1n2[C@@H]1O[C@H](CO)[C@@H](O)[C@H]1O", "HCT116p53−/− (human colorectal cancer, mutant p53)", "< 4.30"],
  ["Nc1ncnc2c1c1ncccc1n2[C@@H]1O[C@H](CO)[C@@H](O)[C@H]1O", "HCT116p53−/− (human colorectal cancer, mutant p53)", "4.30 to 4.60"],
  ["OC[C@H]1O[C@@H](n2c3cccnc3c3c(-c4cc5ccccc5o4)ncnc32)[C@H](O)[C@@H]1O", "HCT116p53−/− (human colorectal cancer, mutant p53)", "< 4.30"],
  ["OC[C@H]1O[C@@H](n2c3cnccc3c3c(-c4cc5ccccc5o4)ncnc32)[C@H](O)[C@@H]1O", "HCT116p53−/− (human colorectal cancer, mutant p53)", "4.60 to 5.00"]
]}

Attribution: patent US11299510B2
